These data points were gathered from patent US20230364118A1.

# measurement.protocol: Single oral dose PK
# Type: in vivo
# applied.conditions: Bama, minipig, plasma; single PO 1.0 g/kg, male
observation.type: Cmax (µg/mL)
Number in µg/mL, nothing else.

Query string: Return value of Cmax for input OC[C@@H](O)[C@@H](O)[C@@H](O)CO , no commentary.
Result string: 404

* * *

# measurement.protocol: Single oral dose PK
# Format: in vivo, CD-1 mouse
# applied.conditions: CD-1, mouse, plasma; single PO 1.0 g/kg, female; read-out: % F
observation.type: bioavailability

Query string: Return value of bioavailability for input OC[C@@H](O)[C@@H](O)[C@@H](O)CO , no commentary.
Result string: 22.1%
